Test system: HT29 xenograft, nude mice, s.c., tumor weight T/C%
Assay: NCI In Vivo Anticancer Drug Screen. Data for tumor model HT29;CX-1 Human Adenocarcinoma (MER+) (subcutaneous) in NU/NU Swiss (nude) mice
Details: endpoint: optimum tumor weight change; dose: 200.0 mg/kg/injection; schedule: Q04DX003 (ip); vehicle: Klucel (hydroxypropylcellulose) (HPC); higher = larger tumour
Catalogue of compounds with associated T/C

O=c1[nH]cnc2n[nH]nc12 : 67 % of control
CS(=O)(=O)OCCN(CCOS(C)(=O)=O)c1ccc(C=Nc2ccc(-c3csc(COc4ccccc4)n3)cc2)cc1 : 70 % of control
CCc1ccccc1N1CCN(C(=O)c2cc(OC)c(OC)c(OC)c2)CC1 : 82 % of control

// next entry
Look up T/C with HT29 xenograft, nude mice, s.c., tumor weight T/C% for this compound: CN(C)N=Nc1cn[nH]c1C(N)=O 88 % of control
